molecular target: B1R receptor of the rat (rB1R) (Rattus norvegicus, UniProt P97583); construct: host or cells: CHO K1 cells; experiment: FLIPR Ca2+ assay on rB1R-transfected CHO K1 cells, antagonistic action; assay type: cell-based; details: CHO-K1, 10 μM test substance; agonist Des-Arg9-bradykinin 100 nM; % of maximum achievable inhibition; read-out: rB1R [10 μM] % inhibition
Sequence (P97583 whole entry): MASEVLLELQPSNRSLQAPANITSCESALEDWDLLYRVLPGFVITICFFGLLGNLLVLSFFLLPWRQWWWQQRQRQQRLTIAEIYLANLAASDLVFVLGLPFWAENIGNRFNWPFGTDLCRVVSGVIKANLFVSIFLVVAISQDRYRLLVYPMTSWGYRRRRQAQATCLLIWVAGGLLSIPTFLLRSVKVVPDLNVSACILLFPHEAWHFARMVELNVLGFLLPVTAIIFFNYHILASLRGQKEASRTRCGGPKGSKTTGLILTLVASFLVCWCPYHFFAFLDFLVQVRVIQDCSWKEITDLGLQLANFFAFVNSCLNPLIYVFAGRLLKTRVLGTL
Use 80% as the dividing line for inhibition at 10 µM, with the line itself on the criterion met side and lower values as criterion not met.

In [3]: df
Out[3]:
                                    compound                             subjectoftest                cat
 0  COc1cc(C)c(S(=O)(=O)N2CCCCC2COCC(=O)N2CCC(CCc3ccccc3)(N3CCN(C)CC3)CC2)c(C)c1 (stereo not shown) [Compound 77]  B1R receptor of the rat (rB1R) (Rattus norvegicus, UniProt P97583)      criterion met
 1  COc1cc(C)c(S(=O)(=O)N(C)CCOCC(=O)N(C)CCC2CCC(CCc3ccccc3)(N3CCCC3)CC2)c(C)c1 (stereo not shown) [Compound 58]  B1R receptor of the rat (rB1R) (Rattus norvegicus, UniProt P97583)      criterion met
 2  COc1cc(C)c(S(=O)(=O)N(C)CCOCC(=O)NC2CCC(Cc3ccccc3)(N3CCCCCC3)CC2)c(C)c1 (stereo not shown) [Compound 20]  B1R receptor of the rat (rB1R) (Rattus norvegicus, UniProt P97583)  criterion not met
 3  CN(CC1CCC(Cc2ccccc2)(N2CCCC2)CC1)C(=O)CC(NS(=O)(=O)c1ccc2ccccc2c1)c1ccccc1 (stereo not shown) [Compound 112]  B1R receptor of the rat (rB1R) (Rattus norvegicus, UniProt P97583)  criterion not met
 4  CN1CCN(C2(c3ccc(F)cc3)CCN(C(=O)COCC3CCc4ccccc4N3S(=O)(=O)c3ccc(Cl)c(Cl)c3)CC2)CC1 (stereo not shown) [Compound 126]  B1R receptor of the rat (rB1R) (Rattus norvegicus, UniProt P97583)  criterion not met
 5  COc1cc(C)c(S(=O)(=O)N2CCC(OCC(=O)NC3CCC(CCc4ccccc4)(N(C)C)CC3)C2)c(C)c1 (stereo not shown) [Compound 5]  B1R receptor of the rat (rB1R) (Rattus norvegicus, UniProt P97583)      criterion met
 6  Cc1ccccc1CC1(N(C)C)CCC(NC(=O)CC2c3ccccc3CCN2S(=O)(=O)c2ccc(Cl)c(Cl)c2)CC1 (stereo not shown) [Compound 12]  B1R receptor of the rat (rB1R) (Rattus norvegicus, UniProt P97583)      criterion met
 7  COc1ccc(S(=O)(=O)N2CCCCC2CCOCC(=O)NC2CCC(c3ccccc3)(N(C)C)CC2)cc1 (stereo not shown) [Compound 19]  B1R receptor of the rat (rB1R) (Rattus norvegicus, UniProt P97583)  criterion not met
 8  COc1cc(C)c(S(=O)(=O)N(C)CCOCC(=O)N2CCC(Cc3ccccc3)(N3CCN(C)CC3)C2)c(C)c1 (stereo not shown) [Compound 197]  B1R receptor of the rat (rB1R) (Rattus norvegicus, UniProt P97583)      criterion met
 9  COc1cc(C)c(S(=O)(=O)N(C)CCOCC(=O)N2CCC(c3cccc(F)c3)(N3CCN(C)CC3)CC2)c(C)c1C [Compound 224]  B1R receptor of the rat (rB1R) (Rattus norvegicus, UniProt P97583)      criterion met
10  Cc1cccc(Cl)c1S(=O)(=O)N1c2ccccc2OCC1COCC(=O)N1CCC(c2cccc(F)c2)(N2CCN(C)CC2)CC1 (stereo not shown) [Compound 222]  B1R receptor of the rat (rB1R) (Rattus norvegicus, UniProt P97583)      criterion met
11  COc1cc(C)c(S(=O)(=O)N(C)CCOCC(=O)N(C)CCC2CCC(c3ccccc3)(N(C)C)CC2)c(C)c1 (stereo not shown) [Compound 72]  B1R receptor of the rat (rB1R) (Rattus norvegicus, UniProt P97583)      criterion met
12  COc1cc(C)c(S(=O)(=O)N2CCCC2COCC(=O)N(C)CC2CCC(CCc3ccccc3)(N3CCN(C)CC3)CC2)c(C)c1 (stereo not shown) [Compound 148]  B1R receptor of the rat (rB1R) (Rattus norvegicus, UniProt P97583)      criterion met
13  COc1cc(C)c(S(=O)(=O)N(C)CCOCC(=O)NC2CCC(Cc3ccccc3)(N3CCCC3)CC2)c(C)c1 (stereo not shown) [Compound 170]  B1R receptor of the rat (rB1R) (Rattus norvegicus, UniProt P97583)      criterion met
14  Cc1cc(S(=O)(=O)N2CCCCC2CCC(=O)N(C)CCC2CCC(c3ccccc3)(N3CCCC3)CC2)c(C)cc1Cl (stereo not shown) [Compound 139]  B1R receptor of the rat (rB1R) (Rattus norvegicus, UniProt P97583)  criterion not met
15  COc1cc(C)c(S(=O)(=O)N2CCCC2COCC(=O)NC2CCC(Cc3ccccc3)(N3CCCC3)CC2)c(C)c1 (stereo not shown) [Compound 151]  B1R receptor of the rat (rB1R) (Rattus norvegicus, UniProt P97583)      criterion met
16  COc1cc(C)c(S(=O)(=O)N2c3ccccc3CCC2COCC(=O)N2CCC(c3cccc(F)c3)(N3CCN(C)CC3)CC2)c(C)c1 (stereo not shown) [Compound 220]  B1R receptor of the rat (rB1R) (Rattus norvegicus, UniProt P97583)      criterion met
